Origin of the recorded values: paper PMC8175350

Test system Calu-3 cells, uninfected Calu-3 CC50 [μM] listed for each of the compounds.
ATTRIBUTE MEASURED: uninfected Calu-3 CC50 [μM]

{"columns": ["COMPOUND", "MEASURED VALUE"],
 "data": [
  ["CC(=N)N1CCC(Oc2ccc(N(Cc3ccc4ccc(C(=N)N)cc4c3)S(=O)(=O)CC(=O)O)cc2)CC1 [YM 60828]", "> 29.867 ×÷ 1 (n=3) μM"],
  ["CC/C(=C(/c1ccc(/C=C/C(=O)O)cc1)c1ccc2[nH]ncc2c1)c1ccc(F)cc1Cl [ARN-810]", "> 23.843 ×÷ 1.22 (n=3) μM"],
  ["NC(N)=Nc1ncc(Cl)c2ccc(-c3cccc(C(=O)O)c3)cc12 [UK-356202]", "> 29.875 ×÷ 1 (n=2) μM"],
  ["CSc1ccc(CN2CCCC(Nc3ccc4[nH]ncc4c3)C2)cc1 (stereo not shown) [INS-117548]", "> 29.875 ×÷ 1 (n=2) μM"]
]}

====

Attribute: Calu-3 uninfected cytotoxicity Sinf Average
# Test system: Calu-3 cells
# EXPERIMENT NOTES: Uninfected Calu-3 48 h Cell-Titer Glo cytotoxicity counter screen
# CONDITION INFO: human, uninfected Calu-3 cells, 48 h
Structures can show the parent of a compound that is named as a salt.
ATTRIBUTE MEASURED: Calu-3 uninfected cytotoxicity Sinf Average (%)

{"columns": ["COMPOUND", "UNIT NAME", "MEASURED VALUE"],
 "data": [
  ["Cc1ccc(NC(=O)c2ccc(CN3CCN(C)CC3)cc2)cc1Nc1nccc(-c2cccnc2)n1 [Imatinib mesylate]", "%", -100],
  ["CCN(CCO)CCCC(C)Nc1ccnc2cc(Cl)ccc12 (stereo not shown) [Hydroxychloroquine sulfate]", "%", -100],
  ["OC(CNCC(O)C1CCc2cc(F)ccc2O1)C1CCc2cc(F)ccc2O1 (stereo not shown) [Nebivolol HCl]", "%", -100],
  ["CCCCN(CCCC)CCC(O)c1cc2c(Cl)cc(Cl)cc2c2cc(C(F)(F)F)ccc12 (stereo not shown) [Halofantrine HCl]", "%", -100]
]}

====

Attribute: HeLa-ACE2 uninfected cytotoxicity Sinf Average
# Test system: HeLa-ACE2 cells
# EXPERIMENT NOTES: Uninfected HeLa-ACE2 24 h live/dead cytotoxicity counter screen
# Assay type: cell-based, human
# CONDITION INFO: curve-fit effect at infinite concentration, average
ATTRIBUTE MEASURED: HeLa-ACE2 uninfected cytotoxicity Sinf Average (%)

{"columns": ["MOLECULE", "TARGET ENTITY", "MEASURED VALUE"],
 "data": [
  ["C[C@@H]1C[C@@H]([C@H](O)CC2CC(=O)NC(=O)C2)C(=O)[C@@H](C)C1 [Cycloheximide]", "HeLa-ACE2 cells", -80],
  ["CO[C@H]1C[C@H](O[C@H]2CC[C@]3(C=O)[C@H]4CC[C@]5(C)[C@@H](C6=CC(=O)OC6)CC[C@]5(O)[C@@H]4CC[C@]3(O)C2)O[C@H](C)[C@H]1O", "HeLa-ACE2 cells", -95],
  ["CCCCCCCCCCCCCC(=O)O[C@@H]1[C@@H](C)[C@@]2(O)[C@@H](C=C(CO)C[C@]3(O)C(=O)C(C)=C[C@@H]23)[C@@H]2C(C)(C)[C@]12OC(C)=O [Phorbol 12-myristate 13-acetate]", "HeLa-ACE2 cells", -58],
  ["Cn1c(C#N)ccc1-c1ccc2c(c1)C(C)(C)OC(=S)N2", "HeLa-ACE2 cells", -50]
]}

====

# System: HepG2
# CONDITION INFO: human, 72 h
ATTRIBUTE MEASURED: HepG2 72-hour cytotoxicity Sinf Average (%)

{"columns": ["COMPOUND", "ATTRIBUTE MEASURED", "UNIT NAME", "MEASURED VALUE"],
 "data": [
  ["COc1ccc2c(O[C@@H]3C[C@H]4C(=O)N[C@]5(C(=O)NS(=O)(=O)C6CC6)C[C@H]5/C=C\\CCCCN(C)C(=O)[C@@H]4C3)cc(-c3nc(C(C)C)cs3)nc2c1C", "HepG2 72-hour cytotoxicity Sinf Average", "%", -100],
  ["CCCCN1CC[C@H](c2ccc(N(C)C)cc2)[C@@H](COc2ccc(C(F)(F)F)cc2)C1", "HepG2 72-hour cytotoxicity Sinf Average", "%", -100],
  ["N#Cc1c(N)nc(N)nc1N[C@H](c1nc2c(F)ccc(Cl)c2c(=O)n1-c1cccnc1)C1CC1", "HepG2 72-hour cytotoxicity Sinf Average", "%", -100],
  ["COC(=O)C1=C(C)NC(C)=C(C(=O)OCCN2CCN(C(c3ccccc3)c3ccccc3)CC2)C1c1cccc([N+](=O)[O-])c1 (stereo not drawn)", "HepG2 72-hour cytotoxicity Sinf Average", "%", -100],
  ["Nc1nc(Nc2ccc3c(c2)CC[C@@H](N2CCCC2)CC3)nn1-c1cc2c(nn1)-c1ccccc1CCC2", "HepG2 72-hour cytotoxicity Sinf Average", "%", -105],
  ["Oc1ccc(Nc2ccnc3cc(Cl)ccc23)cc1CN1CCCC1", "HepG2 72-hour cytotoxicity Sinf Average", "%", -102],
  ["CCN(CC)CCCNc1ccnc2cc(Cl)ccc12", "HepG2 72-hour cytotoxicity Sinf Average", "%", -100],
  ["COc1ccc2c(c1)[C@]1(C[C@H]1c1ccc3c(/C=C/c4ccc(CN5C[C@@H](C)O[C@@H](C)C5)cc4)n[nH]c3c1)C(=O)N2", "HepG2 72-hour cytotoxicity Sinf Average", "%", -100],
  ["CCCCC1CCc2cc(O)cc3c(CCN4CCN(c5cc(C)ccn5)CC4)c(C)n1c23 (stereo not drawn)", "HepG2 72-hour cytotoxicity Sinf Average", "%", -101]
]}

====

Attribute: CC50 at 48 h
# EXPERIMENT NOTES: Uninfected Calu-3 48 h Cell-Titer Glo cytotoxicity counter screen
# CONDITION INFO: human, uninfected Calu-3 cells, Calu-3 uninfected cytotoxicity CC50 GeoMean
Structures can show the parent of a compound that is named as a salt.
ATTRIBUTE MEASURED: CC50 at 48 h (µM)

{"columns": ["COMPOUND", "RELATION SIGN", "MEASURED VALUE"],
 "data": [
  ["COc1cc2c(Nc3ccc(Cl)c(Cl)c3F)ncnc2cc1OC[C@@H]1C[C@@H]2CN(C)C[C@@H]2C1", "=", 3.52],
  ["Cc1ccc(NC(=O)c2ccc(CN3CCN(C)CC3)cc2)cc1Nc1nccc(-c2cccnc2)n1 [Imatinib mesylate]", ">", 29.9],
  ["CCCCN(CCCC)CCC(O)c1cc2c(Cl)cc(Cl)cc2c2cc(C(F)(F)F)ccc12 (stereo not drawn) [Halofantrine HCl]", ">", 22.6],
  ["NC1(c2ccc(-c3nc4ccn5c(=O)[nH]nc5c4cc3-c3ccccc3)cc2)CCC1", "=", 8.7],
  ["OC(CNCC(O)C1CCc2cc(F)ccc2O1)C1CCc2cc(F)ccc2O1 (stereo not drawn) [Nebivolol HCl]", "=", 13.6],
  ["CC(C)(C)Cn1c(N)nc2ccc(-c3[nH]c(C(C)(C)C)nc3-c3ccc(F)cc3)nc21 [Ralimetinib mesylate/LY2228820, Ralimetinib mesylate]", "=", 13.8],
  ["COc1ccc(C[C@H](N)C(=O)N[C@H]2[C@@H](O)[C@H](n3cnc4c(N(C)C)ncnc43)O[C@@H]2CO)cc1 [Puromycin - cytotoxicity control]", "=", 3.95],
  ["Cc1c(-c2ccc(O)cc2)n(Cc2ccc(OCCN3CCCCCC3)cc2)c2ccc(O)cc12 [Bazedoxifene acetate]", "=", 10.6],
  ["CCN(CCO)CCCC(C)Nc1ccnc2cc(Cl)ccc12 (stereo not drawn) [Hydroxychloroquine sulfate]", ">", 24.7]
]}

====

Attribute: uninfected Calu-3 CC50
# System: Calu-3 cells

{"columns": ["MOLECULE", "uninfected Calu-3 CC50"],
 "data": [
  ["CCCCCCCC/C=C/CCCCCCCC(=O)OC[C@H]1O[C@@H](n2ccc(N)nc2=O)C(F)(F)[C@@H]1O [Gemcitabine elaidate]", "> 29.867 ×÷ 1 (n=3) μM"],
  ["CCCCN1CC[C@H](c2ccc(N(C)C)cc2)[C@@H](COc2ccc(C(F)(F)F)cc2)C1", "> 23.525 ×÷ 1.612 (n=4) μM"],
  ["COC(=O)C1=C(C)NC(C)=C(C(=O)OCCN2CCN(C(c3ccccc3)c3ccccc3)CC2)C1c1cccc([N+](=O)[O-])c1 (centres unmarked)", "> 29.89 ×÷ 1.002 (n=5) μM"],
  ["N#Cc1c(N)nc(N)nc1N[C@H](c1nc2c(F)ccc(Cl)c2c(=O)n1-c1cccnc1)C1CC1", "> 29.867 ×÷ 1.001 (n=3) μM"],
  ["O=c1nc(NO)ccn1[C@@H]1O[C@H](CO)[C@@H](O)[C@H]1O [N-hydroxycytidine]", "29.85 ×÷ 1 (n=2) μM"],
  ["CC(C)C(=O)OC[C@H]1O[C@@H](n2ccc(NO)nc2=O)[C@H](O)[C@@H]1O", "> 29.85 ×÷ 1 (n=2) μM"],
  ["CCN(CC)CCCNc1ccnc2cc(Cl)ccc12", "> 29.255 ×÷ 1.046 (n=4) μM"],
  ["Cc1cccc(/C=N/Nc2cc(N3CCOCC3)n3nc(-c4ccncc4)cc3n2)c1", "> 26.965 ×÷ 1.196 (n=6) μM"]
]}
